Species: Rattus norvegicus
Assay: Open TG-GATES - Regimen: Daily Repeat
Assay type: toxicity, organism-based, Sprague-Dawley
Design: regimen Daily Repeat, gender Male, age 6 weeks
Conditions: in vivo, po, 0 mg/kg, […], tissue Liver, route gavage, dose level Control, time 28 day
Test Readout: LIVER (g)
Hi! Could you send only the number? It should be in g, unit omitted.

Molecule: OCCOCCN1CCN(C(c2ccccc2)c2ccc(Cl)cc2)CC1 (stereo not given) [HYDROXYZINE]
Display Unit: g
LIVER: 16.2
--
Molecule: CC(C)N(CCC(C(N)=O)(c1ccccc1)c1ccccn1)C(C)C (stereo not given) [DISOPYRAMIDE]
Display Unit: g
LIVER: 17.8
--
Molecule: CC[C@H]1[C@@H]2C[C@H]3[C@@H]4N(C)c5ccccc5[C@]45C[C@@H]([C@@H]2[C@H]5O)N3[C@@H]1O
Display Unit: g
LIVER: 16.5
--
Molecule: CCCCc1oc2ccccc2c1C(=O)c1cc(I)c(OCCN(CC)CC)c(I)c1
Display Unit: g
LIVER: 15
--
Molecule: CC1=C(CC(=O)O)c2cc(F)ccc2/C1=C\c1ccc([S+](C)[O-])cc1 (stereo not given)
Display Unit: g
LIVER: 14.9
--
Molecule: CN(C)C(=N)N=C(N)N
Display Unit: g
LIVER: 15.6

Endpoint output: LIVER of ClC(Cl)(Cl)Cl [CARBON TETRACHLORIDE] . Value?
16.7

Request the reported LIVER associated with `CCC1(c2ccccc2)C(=O)NC(=O)NC1=O`
16.7

Record request: LIVER value, item `O=NN(CCCl)C(=O)NC1CCCCC1`
15.1

Which LIVER value belongs to `CCc1oc2ccccc2c1C(=O)c1cc(Br)c(O)c(Br)c1` ?
15.8

----------
Species on record: Rattus norvegicus
Experiment: Open TG-GATES - Regimen: Single
Format: toxicity, organism-based, Sprague-Dawley
Parameters: regimen Single, gender Male, age 6 weeks
Conditions: in vivo, po, 0 mg/kg, 6 h, tissue Blood, route gavage, dose level Control
Test Readout: Neu (%)
Express it in %; write the number only.

Examples from the recorded data:
Compound: ClC(Cl)(Cl)Cl [CARBON TETRACHLORIDE]
Display Unit: %
Neu: 26.6
//
Compound: CN(C)CCC=C1c2ccccc2COc2ccccc21 [DOXEPIN]
Display Unit: %
Neu: 16.2
//
Compound: O=NN(CCCl)C(=O)NC1CCCCC1
Display Unit: %
Neu: 20.6
//
Compound: CCC1(c2ccccc2)C(=O)NC(=O)NC1=O
Display Unit: %
Neu: 21.4
//
Compound: CC1=C(CC(=O)O)c2cc(F)ccc2/C1=C\c1ccc([S+](C)[O-])cc1 (centres undefined)
Display Unit: %
Neu: 17
//
Compound: OCCOCCN1CCN(C(c2ccccc2)c2ccc(Cl)cc2)CC1 (centres undefined) [HYDROXYZINE]
Display Unit: %
Neu: 20.4

Looking for the measured Neu of `CC[C@H]1[C@@H]2C[C@H]3[C@@H]4N(C)c5ccccc5[C@]45C[C@@H]([C@@H]2[C@H]5O)N3[C@@H]1O` , can you help?
15

What does the record list as Neu for `CN(C)C(=N)N=C(N)N` ?
18.4

Query (compound): `CCc1oc2ccccc2c1C(=O)c1cc(Br)c(O)c(Br)c1` ; field requested: Neu
13.6

----------
Below, each entry is listed with its recorded Ret.
Species: Rattus norvegicus
Experiment: Open TG-GATES - Regimen: Single
Assay type: toxicity, organism-based, Sprague-Dawley
Set-up: regimen Single, gender Male, age 6 weeks
Details: in vivo, po, 100 mg/kg, 24 h, tissue Blood, route gavage, dose level Low
Expressed in %, but write only the number.

// worked examples, Ret included
Compound: O=NN1CCOCC1 [N-NITROSOMORPHOLINE]
Display Unit: %
Ret: 7.6
--
Compound: CN(C)C(=N)N=C(N)N [METFORMIN]
Display Unit: %
Ret: 8.8
--
Compound: CN(C)CCC=C1c2ccccc2COc2ccccc21 [DOXEPIN]
Display Unit: %
Ret: 7.3

// next item, Ret requested
What value of measured Ret is listed for CCC1(c2ccccc2)C(=O)NC(=O)NC1=O [PHENOBARBITAL] ?
6.6

----------
Organism: Rattus norvegicus
Assay: Open TG-GATES - Regimen: Daily Repeat
Format: toxicity, organism-based, Sprague-Dawley
Set-up: regimen Daily Repeat, gender Male, age 6 weeks
Conditions: in vivo, po, 0 mg/kg, […], tissue Blood, route gavage, dose level Control, time 7 day
Note to self: Mono under 3% means satisfied, ties and anything higher get not satisfied.

Record excerpt, results attached:
Compound: CCCCc1oc2ccccc2c1C(=O)c1cc(I)c(OCCN(CC)CC)c(I)c1
Label Value: satisfied
//
Compound: CC[C@H]1[C@@H]2C[C@H]3[C@@H]4N(C)c5ccccc5[C@]45C[C@@H]([C@@H]2[C@H]5O)N3[C@@H]1O
Label Value: not satisfied
//
Compound: CCc1oc2ccccc2c1C(=O)c1cc(Br)c(O)c(Br)c1
Label Value: not satisfied

hey, is Mono for `CCC1(c2ccccc2)C(=O)NC(=O)NC1=O` lower than 3% or not?
not satisfied

Identify whether the compound `O=NN(CCCl)C(=O)NC1CCCCC1` records Mono below 3%.
not satisfied

Is Mono of OCCOCCN1CCN(C(c2ccccc2)c2ccc(Cl)cc2)CC1 (stereo unspecified) [HYDROXYZINE] strictly below 3%?
satisfied

Lab log: compare recorded Mono with 3%; is it strictly lower for CN(C)CCC=C1c2ccccc2COc2ccccc21 [DOXEPIN] ?
not satisfied

Here's an entry: ClC(Cl)(Cl)Cl [CARBON TETRACHLORIDE] . Is its Mono below 3%?
satisfied

Please check: Mono for CC1=C(CC(=O)O)c2cc(F)ccc2/C1=C\c1ccc([S+](C)[O-])cc1 (stereo unspecified) , strictly under 3% or not?
satisfied

Quick check: does CC(C)N(CCC(C(N)=O)(c1ccccc1)c1ccccn1)C(C)C (stereo unspecified) [DISOPYRAMIDE] have Mono under 3%?
satisfied

----------
Item-by-item account of MCV
Organism: Rattus norvegicus
Experiment: Open TG-GATES - Regimen: Single
Type: toxicity, organism-based, Sprague-Dawley
Parameters: regimen Single, gender Male, age 6 weeks
Details: in vivo, po, 0 mg/kg, 9 h, tissue Blood, route gavage, dose level Control
A complete answer gives the number and then names the unit.

Compound: ClC(Cl)(Cl)Cl [CARBON TETRACHLORIDE]
MCV: 64.2 fL
//
Compound: CN(C)CCC=C1c2ccccc2COc2ccccc21 [DOXEPIN]
MCV: 65.3 fL

Give the measured MCV of OCCOCCN1CCN(C(c2ccccc2)c2ccc(Cl)cc2)CC1 (stereo not given) [HYDROXYZINE] .
63.5 fL

Any idea what its MCV is? The compound is `CCC1(c2ccccc2)C(=O)NC(=O)NC1=O`
59.8 fL

# MCV lookup, item CC(C)N(CCC(C(N)=O)(c1ccccc1)c1ccccn1)C(C)C (stereo not given) [DISOPYRAMIDE]
62.7 fL

Query (compound): `O=NN(CCCl)C(=O)NC1CCCCC1` ; field requested: MCV
66.4 fL

----------
Below: a set of entries, each annotated with reported Na.
Species: Rattus norvegicus
Assay: Open TG-GATES - Regimen: Daily Repeat
Type: toxicity, organism-based, Sprague-Dawley
Parameters: regimen Daily Repeat, gender Male, age 6 weeks
Conditions: in vivo, po, 0 mg/kg, […], tissue Plasma, route gavage, dose level Control, time 14 day
Reply with just the number (in meq/L).

Molecule: CC[C@H]1[C@@H]2C[C@H]3[C@@H]4N(C)c5ccccc5[C@]45C[C@@H]([C@@H]2[C@H]5O)N3[C@@H]1O [AJMALINE]
Display Unit: meq/L
Na: 141.6
--
Molecule: ClC(Cl)(Cl)Cl [CARBON TETRACHLORIDE]
Display Unit: meq/L
Na: 142.4
--
Molecule: CC(C)N(CCC(C(N)=O)(c1ccccc1)c1ccccn1)C(C)C (stereo unspecified) [DISOPYRAMIDE]
Display Unit: meq/L
Na: 142.2
--
Molecule: CN(C)CCC=C1c2ccccc2COc2ccccc21 [DOXEPIN]
Display Unit: meq/L
Na: 143.4
--
Molecule: O=NN(CCCl)C(=O)NC1CCCCC1 [LOMUSTINE]
Display Unit: meq/L
Na: 140.2

Param item = OCCOCCN1CCN(C(c2ccccc2)c2ccc(Cl)cc2)CC1 (stereo unspecified) [HYDROXYZINE] ; retrieve measured Na.
141.8

Could you tell me which Na is on file for CN(C)C(=N)N=C(N)N [METFORMIN] ?
142.8

What value of measured Na is listed for CCc1oc2ccccc2c1C(=O)c1cc(Br)c(O)c(Br)c1 [BENZBROMARONE] ?
140.1

I'd like to know its Na. The molecule in question is CCC1(c2ccccc2)C(=O)NC(=O)NC1=O [PHENOBARBITAL]
141.4

Param item = CC1=C(CC(=O)O)c2cc(F)ccc2/C1=C\c1ccc([S+](C)[O-])cc1 (stereo unspecified) ; retrieve measured Na.
143.6

Please give the measured Na for this molecule: CCCCc1oc2ccccc2c1C(=O)c1cc(I)c(OCCN(CC)CC)c(I)c1 [AMIODARONE]
140.2
